// reported remaining at 1 h for each item listed
- Test Method Notes: Stability in human serum at 37 °C (radio-HPLC)
- Type: in vitro ADME
- Conditions Used: 1 h, read-out: intact radiolabeled ligand (RCP)
Kindly provide the numeric value in % only, without the unit symbol.

CC(C)CC(CC(C)C)NC(=O)[C@H](Cc1cnc[nH]1)NC(=O)CNC(=O)[C@@H](NC(=O)[C@H](C)NC(=O)[C@H](Cc1c[nH]c2ccccc12)NC(=O)[C@H](CCC(N)=O)NC(=O)[C@@H](Cc1ccccc1)NC(=O)COCC(=O)Nc1ccc(CNC(=O)CN2CCN(CC(=O)O)CCN(CC(=O)O)CCN(CC(=O)O)CC2)cc1)C(C)C [[^177Lu]Lu-NeoB, metal not drawn] ... 97.9

In plain terms, CC(C)C[C@H](NC(=O)C[C@H](O)[C@H](CC(C)C)NC(=O)[C@H](Cc1c[nH]cn1)NC(=O)CNC(=O)[C@@H](NC(=O)[C@H](C)NC(=O)[C@H](Cc1c[nH]c2ccccc12)NC(=O)[C@H](CCC(N)=O)NC(=O)[C@@H](Cc1ccccc1)NC(=O)CN1CCC(NC(=O)CN2CCN(CC(=O)O)CCN(CC(=O)O)CCN(CC(=O)O)CC2)CC1)C(C)C)C(N)=O [[^177Lu]Lu-RM2, metal not drawn] has a documented remaining at 1 h of 96.7

---

- Test Method Notes: In vivo biodistribution and clearance in PC-3 tumor-bearing mice
- Conditions Used: male, NMRI-Foxn1 nu/nu, mouse, muscle, iv, total radioactivity; 24 h p.i., i.v.; read-out: % uptake muscle
Attribute Measured: tissue uptake at 24 h (%ID/g)
Kindly provide the numeric value in %ID/g only, without the unit symbol.

In plain terms, CC(C)C[C@H](NC(=O)C[C@H](O)[C@H](CC(C)C)NC(=O)[C@H](Cc1c[nH]cn1)NC(=O)CNC(=O)[C@@H](NC(=O)[C@H](C)NC(=O)[C@H](Cc1c[nH]c2ccccc12)NC(=O)[C@H](CCC(N)=O)NC(=O)[C@@H](Cc1ccccc1)NC(=O)CN1CCC(NC(=O)CN2CCN(CC(=O)O)CCN(CC(=O)O)CCN(CC(=O)O)CC2)CC1)C(C)C)C(N)=O [[^177Lu]Lu-RM2, metal not drawn] has a documented tissue uptake at 24 h of 0.01

---

- Test Method Notes: In vivo biodistribution and clearance in PC-3 tumor-bearing mice
- Conditions Used: male, NMRI-Foxn1 nu/nu, mouse, spleen, iv, total radioactivity; 1 h p.i., i.v.; read-out: % uptake spleen
// reported tissue uptake at 1 h for each item listed
Kindly provide the numeric value in %ID/g only, without the unit symbol.

CC(C)C[C@H](NC(=O)C[C@H](O)[C@H](CC(C)C)NC(=O)[C@H](Cc1c[nH]cn1)NC(=O)CNC(=O)[C@@H](NC(=O)[C@H](C)NC(=O)[C@H](Cc1c[nH]c2ccccc12)NC(=O)[C@H](CCC(N)=O)NC(=O)[C@@H](Cc1ccccc1)NC(=O)CN1CCC(NC(=O)CN2CCN(CC(=O)O)CCN(CC(=O)O)CCN(CC(=O)O)CC2)CC1)C(C)C)C(N)=O [[^177Lu]Lu-RM2, metal not drawn] ... 0.19

Now let's try a different one.
In plain terms, CC(C)CC(CC(C)C)NC(=O)[C@H](Cc1cnc[nH]1)NC(=O)CNC(=O)[C@@H](NC(=O)[C@H](C)NC(=O)[C@H](Cc1c[nH]c2ccccc12)NC(=O)[C@H](CCC(N)=O)NC(=O)[C@@H](Cc1ccccc1)NC(=O)COCC(=O)Nc1ccc(CNC(=O)CN2CCN(CC(=O)O)CCN(CC(=O)O)CCN(CC(=O)O)CC2)cc1)C(C)C [[^177Lu]Lu-NeoB, metal not drawn] has a documented tissue uptake at 1 h of 0.43

---

// reported tissue uptake at 72 h for each item listed
- Test Method Notes: In vivo biodistribution and clearance in PC-3 tumor-bearing mice
- Conditions Used: male, NMRI-Foxn1 nu/nu, mouse, spleen, iv, total radioactivity; 72 h p.i., i.v.; read-out: % uptake spleen

CC(C)C[C@H](NC(=O)C[C@H](O)[C@H](CC(C)C)NC(=O)[C@H](Cc1c[nH]cn1)NC(=O)CNC(=O)[C@@H](NC(=O)[C@H](C)NC(=O)[C@H](Cc1c[nH]c2ccccc12)NC(=O)[C@H](CCC(N)=O)NC(=O)[C@@H](Cc1ccccc1)NC(=O)CN1CCC(NC(=O)CN2CCN(CC(=O)O)CCN(CC(=O)O)CCN(CC(=O)O)CC2)CC1)C(C)C)C(N)=O [[^177Lu]Lu-RM2, metal not drawn] ... 0.02 %ID/g

In plain terms, CC(C)CC(CC(C)C)NC(=O)[C@H](Cc1cnc[nH]1)NC(=O)CNC(=O)[C@@H](NC(=O)[C@H](C)NC(=O)[C@H](Cc1c[nH]c2ccccc12)NC(=O)[C@H](CCC(N)=O)NC(=O)[C@@H](Cc1ccccc1)NC(=O)COCC(=O)Nc1ccc(CNC(=O)CN2CCN(CC(=O)O)CCN(CC(=O)O)CCN(CC(=O)O)CC2)cc1)C(C)C [[^177Lu]Lu-NeoB, metal not drawn] has a documented tissue uptake at 72 h of 0.01 %ID/g

---

// reported tissue uptake at 1 h for each item listed
- Test Method Notes: In vivo biodistribution and clearance in PC-3 tumor-bearing mice
- Conditions Used: male, NMRI-Foxn1 nu/nu, mouse, pancreas, iv, total radioactivity; 1 h p.i., i.v.; read-out: % uptake pancreas
Kindly provide the numeric value in %ID/g only, without the unit symbol.

CC(C)CC(CC(C)C)NC(=O)[C@H](Cc1cnc[nH]1)NC(=O)CNC(=O)[C@@H](NC(=O)[C@H](C)NC(=O)[C@H](Cc1c[nH]c2ccccc12)NC(=O)[C@H](CCC(N)=O)NC(=O)[C@@H](Cc1ccccc1)NC(=O)COCC(=O)Nc1ccc(CNC(=O)CN2CCN(CC(=O)O)CCN(CC(=O)O)CCN(CC(=O)O)CC2)cc1)C(C)C [[^177Lu]Lu-NeoB, metal not drawn] ... 30.7

In plain terms, CC(C)C[C@H](NC(=O)C[C@H](O)[C@H](CC(C)C)NC(=O)[C@H](Cc1c[nH]cn1)NC(=O)CNC(=O)[C@@H](NC(=O)[C@H](C)NC(=O)[C@H](Cc1c[nH]c2ccccc12)NC(=O)[C@H](CCC(N)=O)NC(=O)[C@@H](Cc1ccccc1)NC(=O)CN1CCC(NC(=O)CN2CCN(CC(=O)O)CCN(CC(=O)O)CCN(CC(=O)O)CC2)CC1)C(C)C)C(N)=O [[^177Lu]Lu-RM2, metal not drawn] has a documented tissue uptake at 1 h of 14.4

---

- Test Method Notes: In vivo biodistribution and clearance in PC-3 tumor-bearing mice
- Conditions Used: male, NMRI-Foxn1 nu/nu, mouse, pancreas, iv, total radioactivity; 72 h p.i., i.v.; read-out: % uptake pancreas
- Protocol: All animal experiments were approved by the Animal Welfare Committee of the Erasmus MC, and all experiments were conducted in accordance to institutional guidelines. At 1, 4, 24, 48, and 72 h post-injection (p.i.), animals were sedated using 2.5% isoflurane in oxygen, and blood was collected via the orbital vein, after which the animals were euthanized using cervical dislocation. […] The collected tumor and organs were weighed, and the radioactivity was measured in the gamma counter. […]
// reported tissue uptake at 72 h for each item listed
Kindly provide the numeric value in %ID/g only, without the unit symbol.

CC(C)C[C@H](NC(=O)C[C@H](O)[C@H](CC(C)C)NC(=O)[C@H](Cc1c[nH]cn1)NC(=O)CNC(=O)[C@@H](NC(=O)[C@H](C)NC(=O)[C@H](Cc1c[nH]c2ccccc12)NC(=O)[C@H](CCC(N)=O)NC(=O)[C@@H](Cc1ccccc1)NC(=O)CN1CCC(NC(=O)CN2CCN(CC(=O)O)CCN(CC(=O)O)CCN(CC(=O)O)CC2)CC1)C(C)C)C(N)=O [[^177Lu]Lu-RM2, metal not drawn] ... 0.05

Now let's try a different one.
In plain terms, CC(C)CC(CC(C)C)NC(=O)[C@H](Cc1cnc[nH]1)NC(=O)CNC(=O)[C@@H](NC(=O)[C@H](C)NC(=O)[C@H](Cc1c[nH]c2ccccc12)NC(=O)[C@H](CCC(N)=O)NC(=O)[C@@H](Cc1ccccc1)NC(=O)COCC(=O)Nc1ccc(CNC(=O)CN2CCN(CC(=O)O)CCN(CC(=O)O)CCN(CC(=O)O)CC2)cc1)C(C)C [[^177Lu]Lu-NeoB, metal not drawn] has a documented tissue uptake at 72 h of 0.35
